Target entity: T1, human CCR8 (human, UniProt P51685 1-355)
T1 construct: Native CCR8 on human PBMC (CCR8+ CD3+ or CCR8+ CD4+ lymphocytes); also called chemokine (C-C motif) receptor 8
T1 sequence (P51685 whole entry): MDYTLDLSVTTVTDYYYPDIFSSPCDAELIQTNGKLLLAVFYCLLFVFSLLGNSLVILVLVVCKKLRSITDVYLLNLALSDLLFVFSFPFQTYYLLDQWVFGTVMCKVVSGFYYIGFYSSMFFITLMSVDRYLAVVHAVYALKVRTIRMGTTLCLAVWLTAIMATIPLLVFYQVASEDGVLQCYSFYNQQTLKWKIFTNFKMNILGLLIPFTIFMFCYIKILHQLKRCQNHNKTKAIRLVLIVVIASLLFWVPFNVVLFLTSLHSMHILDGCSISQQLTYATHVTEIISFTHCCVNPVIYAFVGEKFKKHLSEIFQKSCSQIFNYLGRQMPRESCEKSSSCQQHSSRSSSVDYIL
Protocol notes: flow blocking, PBMC CCR8+CD3+; competitor PE-AB14
Items are presented alongside their recorded % Blocking.
Test readout: % Blocking (%)

- Binder: "AB6 (antibody, V domains shown, Hybridoma monoclonal; Same VH/VL entries as AB5; also called antibody 6; clone 6) VH: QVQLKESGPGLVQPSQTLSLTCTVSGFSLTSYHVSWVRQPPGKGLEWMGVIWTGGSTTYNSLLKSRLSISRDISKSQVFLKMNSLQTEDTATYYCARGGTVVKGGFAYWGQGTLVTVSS VL: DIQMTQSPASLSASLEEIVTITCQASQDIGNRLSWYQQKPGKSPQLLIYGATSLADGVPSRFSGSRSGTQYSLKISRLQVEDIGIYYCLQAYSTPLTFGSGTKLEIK"
  Measured result: 3.88
- Binder: "AB8 (antibody, V domains shown, Hybridoma monoclonal; also called antibody 8; clone 8) VH: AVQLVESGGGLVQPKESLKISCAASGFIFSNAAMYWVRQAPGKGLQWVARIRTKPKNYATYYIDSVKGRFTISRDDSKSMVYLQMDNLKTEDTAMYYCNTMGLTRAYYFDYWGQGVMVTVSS VL: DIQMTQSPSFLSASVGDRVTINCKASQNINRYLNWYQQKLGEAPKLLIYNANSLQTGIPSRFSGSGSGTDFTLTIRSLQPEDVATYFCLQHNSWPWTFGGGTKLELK"
  Measured result: 46.4
- Binder: "AB5 (antibody, V domains shown, Hybridoma monoclonal; Same VH/VL entries as AB6; also called antibody 5; clone 5) VH: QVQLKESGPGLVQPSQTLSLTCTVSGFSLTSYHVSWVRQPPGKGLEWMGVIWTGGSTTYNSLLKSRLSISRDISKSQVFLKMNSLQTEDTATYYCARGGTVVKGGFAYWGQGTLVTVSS VL: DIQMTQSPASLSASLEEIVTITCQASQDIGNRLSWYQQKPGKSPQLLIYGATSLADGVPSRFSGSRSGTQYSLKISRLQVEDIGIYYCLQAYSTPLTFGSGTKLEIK"
  Measured result: 0.46
